- Protocol notes: Octanol-water partition coefficient, log P of the compound at pH 7.4
- Assay type: physicochemical
Lab note: compare logD against 3. Equal or greater, write True. Smaller, write False.

Reference set (2 entries):
>  <Compound>
CO[C@H]1O[C@@H]2O[C@@]3(C)CC[C@H]4[C@H](C)CC[C@@H]([C@H]1C)[C@@]24OO3 [ARTEMETHER]

>  <Assigned category>
True

$$$$
>  <Compound>
C[C@H]1[C@H](N2CCSCC2)O[C@@H]2O[C@@]3(C)CC[C@H]4[C@H](C)CC[C@@H]1[C@@]24OO3 [ARTEMISIDE]

>  <Assigned category>
True

$$$$

Determine whether this compound has logD no lower than 3: "C[C@H]1[C@H](N2CC[S+]([O-])CC2)O[C@@H]2O[C@@]3(C)CC[C@H]4[C@H](C)CC[C@@H]1[C@@]24OO3" False

Determine whether this compound has logD no lower than 3: C[C@H]1[C@H](N2CCS(=O)(=O)CC2)O[C@@H]2O[C@@]3(C)CC[C@H]4[C@H](C)CC[C@@H]1[C@@]24OO3 [ARTEMIFONE] False

###

- Tested on: Plasmodium falciparum
- Protocol notes: Antimalarial activity against multi-drug resistant Plasmodium falciparum
- Type: functional, organism-based
Measured parameter: pEC50
Lab note: report pEC50 as minus log10 of the concentration in molar units, number only.

>  <Compound>
C[C@H]1[C@H](N2CCS(=O)(=O)CC2)O[C@@H]2O[C@@]3(C)CC[C@H]4[C@H](C)CC[C@@H]1[C@@]24OO3 [ARTEMIFONE]

>  <Measurement target>
Plasmodium falciparum

>  <Value>
9.85

$$$$

Now consider the entry below.
May I ask what pEC50 has been recorded for C[C@H]1[C@H](OC(=O)CCC(=O)O)O[C@@H]2O[C@@]3(C)CC[C@H]4[C@H](C)CC[C@@H]1[C@@]24OO3 [SODIUM ARESUNATE] ? 9.14

###

- Protocol notes: Half life in simulated stomach acid
- Assay type: ADME
Listed here: items and their measured half-life.
Give just the number in h; leave the unit off.

>  <Compound>
C[C@H]1[C@@H](CCc2ccc(C(=O)O)cc2)O[C@@H]2O[C@]3(C)CC[C@H]4[C@H](C)CC[C@@H]1[C@@]24OO3

>  <Value>
13.1

$$$$

Now consider the entry below.
May I ask what half-life has been recorded for C[C@H]1[C@@H](OCc2ccc(C(=O)[O-])cc2)O[C@@H]2O[C@]3(C)CC[C@H]4[C@H](C)CC[C@@H]1[C@@]24OO3.[Na+] [SODIUMARTELINATE] ? 259

###

- System: Plasmodium falciparum
- Protocol notes: Antimalarial activity against chloroquine-resistant Plasmodium falciparum K1
- Assay type: functional, organism-based
Measured parameter: IC50 (nM)
Give just the number in nM; leave the unit off.

// solved cases for IC50 follow
>  <Molecule>
CC1CCC2CC1OO[C@]2(C)/C=C/[C@@H](O)C(C)(C)O (stereo not given in full)

>  <Value>
56

$$$$
>  <Molecule>
CC(=O)OC1(C)CCC2CC1OO[C@]2(/C=C\c1ccc(F)cc1)c1ccccc1 (stereo not given in full)

>  <Value>
29

$$$$
>  <Molecule>
CC1CCC2CC1OO[C@]2(C)/C=C/[C@H](O)C(C)(C)O (stereo not given in full)

>  <Value>
115

$$$$
>  <Molecule>
CC(=O)OC1(C)CCC2CC1OO[C@]2(/C=C\c1ccc(Cl)cc1)c1ccccc1 (stereo not given in full)

>  <Value>
23

$$$$

Please state recorded IC50 (tested on Plasmodium falciparum) of C[C@@H]1CC[C@H]2[C@@H](C)C(=O)O[C@@H]3O[C@@]4(C)CC[C@@H]1[C@]32OO4 [ARTEMISININ] 2.8

The measured values listed here are drawn from ChEMBL document CHEMBL3217710.
